# target desc: T1, human TREM2 Fc fusion (entire TREM2 ECD; only one Fc arm fused to TREM2) (human, UniProt Q9NZC2 19-174)
# T1 construct: also called huTREM2-Fc; recombinant hTREM2
# T1 sequence: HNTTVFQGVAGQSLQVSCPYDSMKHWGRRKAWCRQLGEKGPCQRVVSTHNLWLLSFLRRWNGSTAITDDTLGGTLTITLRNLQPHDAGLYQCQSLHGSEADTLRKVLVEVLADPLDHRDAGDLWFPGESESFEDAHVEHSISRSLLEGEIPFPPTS
# assay notes: BLI, IgG, avid
measured metric: pKd
// pKd is dimensionless: -log10 of concentration (M)

- binder: "AL2p-14 (antibody, V domains shown, Fab and IgG formats under one id) VH: QVQLVQSGAEVKKPGSSVKVSCKASGYAFSSHWMNWVRQAPGQGLEWMGRIYPGDGDTNYAQKFQGRVTITADESTSTAYMELSSLRSEDTAVYYCARLLRNQPGESYAMDYWGQGTLVTVSS VL: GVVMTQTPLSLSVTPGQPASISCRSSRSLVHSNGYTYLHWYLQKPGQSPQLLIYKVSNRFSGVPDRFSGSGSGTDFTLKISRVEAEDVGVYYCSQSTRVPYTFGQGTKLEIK"
  pKd: 9.50

Now for a further binder.
Give the measured pKd of AL2p-22 (antibody, V domains shown, Fab and IgG formats under one id) VH: QVQLVQSGAEVKKPGSSVKVSCKASGYAFSSHWMNWVRQAPGQGLEWMGRIYPGDGDTNYAYKFQGRVTITADESTSTAYMELSSLRSEDTAVYYCARLLRNQPGESYAMDYWGQGTLVTVSS VL: GVVMTQTPLSLSVTPGQPASISCRSSRSLVHSNGYTYLHWYLQKPGQSPQLLIYKVSNRRSGVPDRFSGSGSGTDFTLKISRVEAEDVGVYYCSQSTRVPYTFGQGTKLEIK .
9.66
